Values from patent US20170022281A1

testSystem: T1, human PRLR (Biacore antigen) (human, UniProt P16471 25-234, limits assumed)
T1 construct: The construct injected over captured antibody is not described (a soluble form is likely); also called huPRLR
T1 sequence: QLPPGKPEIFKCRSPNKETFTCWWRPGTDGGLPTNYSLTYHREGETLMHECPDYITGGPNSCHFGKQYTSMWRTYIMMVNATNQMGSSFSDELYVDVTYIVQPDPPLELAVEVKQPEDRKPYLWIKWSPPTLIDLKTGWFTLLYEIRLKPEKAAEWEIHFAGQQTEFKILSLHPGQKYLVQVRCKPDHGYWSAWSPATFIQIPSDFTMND
experimentalProtocol: SPR simultaneous binding; PRLR held by surface mAb LFA102
readoutName: solution mAb binding, % of PRLR binding (%)
Hi! Could you send only the number? It should be in %, unit omitted.

### Prompt Endpoint output: solution mAb binding, % of PRLR binding of LFA102 (antibody, human IgG1, kappa, V domains shown, humanized IgG1 kappa comparator (WO 2008022295)) VH: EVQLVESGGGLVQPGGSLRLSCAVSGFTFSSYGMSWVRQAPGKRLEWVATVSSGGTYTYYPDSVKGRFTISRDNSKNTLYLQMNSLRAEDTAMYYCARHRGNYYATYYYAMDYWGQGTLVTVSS VL: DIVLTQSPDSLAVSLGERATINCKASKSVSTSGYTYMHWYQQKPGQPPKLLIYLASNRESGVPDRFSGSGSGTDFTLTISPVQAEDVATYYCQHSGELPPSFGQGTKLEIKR . Value?
### Response -2

### Prompt // returns reported solution mAb binding, % of PRLR binding for input chAb7 (antibody, human IgG1, kappa, V domains shown, chimeric, murine variable and human G1/kappa constant regions) VH: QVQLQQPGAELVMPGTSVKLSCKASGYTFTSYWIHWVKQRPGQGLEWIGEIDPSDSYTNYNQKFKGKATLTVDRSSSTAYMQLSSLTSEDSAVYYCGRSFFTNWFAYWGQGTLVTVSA VL: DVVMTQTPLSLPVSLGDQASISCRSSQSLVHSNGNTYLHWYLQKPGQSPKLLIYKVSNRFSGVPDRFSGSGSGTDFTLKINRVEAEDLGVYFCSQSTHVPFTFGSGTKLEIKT
### Response 48
